# tested-system: T1, ICAM-1-Fcγ (ICAM-1 residues of 1-480 fused to the Fc of human IgG, R&D Systems) (human, UniProt P05362 28-480)
# T1 construct: range 1-480; Bought (R&D Systems); also called ICAM-1-Fcγ chimera; not shown: Fc of human IgG
# T1 sequence (P05362 28-480 limits assumed, form in doubt): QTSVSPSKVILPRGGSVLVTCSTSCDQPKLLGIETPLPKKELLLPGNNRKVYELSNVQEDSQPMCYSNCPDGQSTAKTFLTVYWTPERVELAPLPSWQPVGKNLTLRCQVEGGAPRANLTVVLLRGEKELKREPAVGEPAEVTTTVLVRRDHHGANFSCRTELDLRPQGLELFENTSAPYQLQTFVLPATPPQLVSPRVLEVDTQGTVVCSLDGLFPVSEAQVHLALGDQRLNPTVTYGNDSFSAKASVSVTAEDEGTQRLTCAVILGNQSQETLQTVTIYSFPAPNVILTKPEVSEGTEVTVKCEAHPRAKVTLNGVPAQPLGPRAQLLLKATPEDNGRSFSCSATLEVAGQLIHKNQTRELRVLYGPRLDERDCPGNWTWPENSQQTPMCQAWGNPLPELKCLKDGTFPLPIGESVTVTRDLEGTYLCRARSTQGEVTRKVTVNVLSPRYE
# measurement-protocol: flow cytometry on yeast-displayed I domain, ICAM-1-Fcγ 10 µg/ml
readout-kind: ICAM-1 (% ASFI of HA)

Worked cases, ICAM-1 (% ASFI of HA) given:
αL I domain clone f3 (L289P), yeast-displayed (receptor, yeast surface display; not shown: Aga2, linker and hemagglutinin tag of pCTCON; c-myc tag) NVDLVFLFDGSMSLQPDEFQKILDFMKDVMKKLSNTSYQFAAVQFSTSYKTEFDFSDYVKWKDPDALLKHVKHMLLLTNTFGAINYVATEVFREELGARPDATKVLIIITDGEATDSGNIDAAKDIIRYIIGIGKHFQTKESQETLHKFASKPASEFVKIPDTFEKLKDLFTELQKKIYVIEGTSKQDLT :: 24 % ASFI of HA
αL I domain clone m13 (F265S), yeast-displayed (receptor, yeast surface display; not shown: Aga2, linker and hemagglutinin tag of pCTCON; c-myc tag) NVDLVFLFDGSMSLQPDEFQKILDFMKDVMKKLSNTSYQFAAVQFSTSYKTEFDFSDYVKWKDPDALLKHVKHMLLLTNTFGAINYVATEVFREELGARPDATKVLIIITDGEATDSGNIDAAKDIIRYIIGIGKHSQTKESQETLHKFASKPASEFVKILDTFEKLKDLFTELQKKIYVIEGTSKQDLT :: 123 % ASFI of HA

We now examine a further binder.
Consider the binder shown here: αL I domain clone f10 (L295Q), yeast-displayed (receptor, yeast surface display; not shown: Aga2, linker and hemagglutinin tag of pCTCON; c-myc tag) NVDLVFLFDGSMSLQPDEFQKILDFMKDVMKKLSNTSYQFAAVQFSTSYKTEFDFSDYVKWKDPDALLKHVKHMLLLTNTFGAINYVATEVFREELGARPDATKVLIIITDGEATDSGNIDAAKDIIRYIIGIGKHFQTKESQETLHKFASKPASEFVKILDTFEKQKDLFTELQKKIYVIEGTSKQDLT What is its recorded ICAM-1 (% ASFI of HA)? 4 % ASFI of HA
